biological target: biotinylated α-elapitoxin-Dpp2d from Dendroaspis polylepis (Dendroaspis polylepis (black mamba), UniProt C0HJD7); assay: BLI; […]; association at pH 7.4, dissociation at pH 7.4; 1:1 global fit, […]; settings: both partners purified
Sequence (C0HJD7 whole entry): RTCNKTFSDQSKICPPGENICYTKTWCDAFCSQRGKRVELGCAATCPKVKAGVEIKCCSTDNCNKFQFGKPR
Items are presented alongside their recorded pKd.
pKd here: minus log base 10 of the concentration, concentration in moles per litre.

{"columns": ["BINDER", "DATA VALUE"],
 "data": [
  ["A12 Fab (Fab, V domains shown) VH: QVQLVQSGAEVKKPGSSVKVSCKASGGTFSSYAISWVRQAPGQGLEWMGGIIPIFGTANYAQKFQGRVTITADESTSTAYMELRSLRSDDTAVYYCARDNLGYCSGGSCYSDYYYYYMDVWGQGTLVTVSS VL: NFMLTQPHSVSESPGKTVTFSCTRSSGRIVSDYVHWYQQRPGSAPTTVIYEDNQRPSGVPDRFSGSIDSSSNSASLTISGLKTEDEADYYCQSYDSSNAYVVFGGGTKVTVL", 8.85],
  ["A04 Fab (Fab, V domains shown) VH: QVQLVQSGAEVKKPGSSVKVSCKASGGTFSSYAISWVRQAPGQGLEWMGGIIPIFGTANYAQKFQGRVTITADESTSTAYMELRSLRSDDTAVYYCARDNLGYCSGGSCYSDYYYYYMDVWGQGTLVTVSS VL: SYELTQPPSMSVAPGQTARITCGGDYIGGESVHWYQQKPGRAPVAVVYDDTHRPSGIPERFSGANSGNTATLTISKVEAGDEADYYCQVWDVSSDHVVFGGGTKLTVL", 9.22]
]}

Below: the item to evaluate.
Form field pKd, entry G09 Fab (Fab, V domains shown) VH: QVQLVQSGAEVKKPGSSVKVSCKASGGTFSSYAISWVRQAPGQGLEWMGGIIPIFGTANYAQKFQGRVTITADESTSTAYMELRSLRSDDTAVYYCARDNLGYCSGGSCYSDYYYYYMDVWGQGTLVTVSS VL: SYELTQPPSVSVAPGRTATITCEGDNIGQQIVHWYRQKSDQAPVVVVYDGSRRPSGIPERFSGSNSGNTATLTISRVEAGDEADYYCQVWDITSDHVVFGGGTQLTVL : 9.00
